# protocol_conditions: in n-propanol, 308.15 K
endpoint_label: solubility (mole fraction)
Simply state the number, no unit and no words.

Input: Query: solubility (mole fraction); subject: Clc1ccccc1C(c1ccccc1)(c1ccccc1)n1ccnc1
Output: 0.0353

====

# protocol_conditions: in 1,4-dioxane, 293.15 K
endpoint_label: solubility (mole fraction)
Simply state the number, no unit and no words.

Input: Query: solubility (mole fraction); subject: Clc1ccccc1C(c1ccccc1)(c1ccccc1)n1ccnc1
Output: 0.0441

====

# protocol_conditions: in n-propanol, 303.15 K
endpoint_label: solubility (mole fraction)
Simply state the number, no unit and no words.

Input: Query: solubility (mole fraction); subject: Clc1ccccc1C(c1ccccc1)(c1ccccc1)n1ccnc1
Output: 0.0301

====

# protocol_conditions: in n-propanol, 293.15 K
endpoint_label: solubility (mole fraction)
Simply state the number, no unit and no words.

Input: Query: solubility (mole fraction); subject: Clc1ccccc1C(c1ccccc1)(c1ccccc1)n1ccnc1
Output: 0.0215

====

# protocol_conditions: in acetonitrile, 283.15 K
endpoint_label: solubility (mole fraction)
Simply state the number, no unit and no words.

Input: Query: solubility (mole fraction); subject: Clc1ccccc1C(c1ccccc1)(c1ccccc1)n1ccnc1
Output: 0.00212

====

# protocol_conditions: in acetonitrile, 303.15 K
endpoint_label: solubility (mole fraction)
Simply state the number, no unit and no words.

Input: Query: solubility (mole fraction); subject: Clc1ccccc1C(c1ccccc1)(c1ccccc1)n1ccnc1
Output: 0.00453

====

# protocol_conditions: in acetonitrile, 278.15 K
endpoint_label: solubility (mole fraction)
Simply state the number, no unit and no words.

Input: Query: solubility (mole fraction); subject: Clc1ccccc1C(c1ccccc1)(c1ccccc1)n1ccnc1
Output: 0.00173

====

# protocol_conditions: in acetonitrile, 308.15 K
endpoint_label: solubility (mole fraction)
Simply state the number, no unit and no words.

Input: Query: solubility (mole fraction); subject: Clc1ccccc1C(c1ccccc1)(c1ccccc1)n1ccnc1
Output: 0.00539

====

# protocol_conditions: in 1,4-dioxane, 298.15 K
endpoint_label: solubility (mole fraction)
Simply state the number, no unit and no words.

Input: Query: solubility (mole fraction); subject: Clc1ccccc1C(c1ccccc1)(c1ccccc1)n1ccnc1
Output: 0.05

====

# protocol_conditions: in acetonitrile, 313.15 K
endpoint_label: solubility (mole fraction)
Simply state the number, no unit and no words.

Input: Query: solubility (mole fraction); subject: Clc1ccccc1C(c1ccccc1)(c1ccccc1)n1ccnc1
Output: 0.00636

====

# protocol_conditions: in water, 278.15 K
endpoint_label: solubility (mole fraction)
Simply state the number, no unit and no words.

Input: Query: solubility (mole fraction); subject: Clc1ccccc1C(c1ccccc1)(c1ccccc1)n1ccnc1
Output: 9.28e-09

====

# protocol_conditions: in isopropanol, 278.15 K
endpoint_label: solubility (mole fraction)
Simply state the number, no unit and no words.

Input: Query: solubility (mole fraction); subject: Clc1ccccc1C(c1ccccc1)(c1ccccc1)n1ccnc1
Output: 0.00782

====

# protocol_conditions: in isopropanol, 313.15 K
endpoint_label: solubility (mole fraction)

Input: Query: solubility (mole fraction); subject: Clc1ccccc1C(c1ccccc1)(c1ccccc1)n1ccnc1
Output: 0.0266

====

# protocol_conditions: in isopropanol, 308.15 K
endpoint_label: solubility (mole fraction)
Simply state the number, no unit and no words.

Input: Query: solubility (mole fraction); subject: Clc1ccccc1C(c1ccccc1)(c1ccccc1)n1ccnc1
Output: 0.0228

====

# protocol_conditions: in isopropanol, 323.15 K
endpoint_label: solubility (mole fraction)

Input: Query: solubility (mole fraction); subject: Clc1ccccc1C(c1ccccc1)(c1ccccc1)n1ccnc1
Output: 0.036

====

# protocol_conditions: in acetonitrile, 318.15 K
endpoint_label: solubility (mole fraction)
Simply state the number, no unit and no words.

Input: Query: solubility (mole fraction); subject: Clc1ccccc1C(c1ccccc1)(c1ccccc1)n1ccnc1
Output: 0.00741

====

# protocol_conditions: in 1,4-dioxane, 318.15 K
endpoint_label: solubility (mole fraction)
Simply state the number, no unit and no words.

Input: Query: solubility (mole fraction); subject: Clc1ccccc1C(c1ccccc1)(c1ccccc1)n1ccnc1
Output: 0.0813

====

# protocol_conditions: in isopropanol, 283.15 K
endpoint_label: solubility (mole fraction)

Input: Query: solubility (mole fraction); subject: Clc1ccccc1C(c1ccccc1)(c1ccccc1)n1ccnc1
Output: 0.00947

====

# protocol_conditions: in n-propanol, 288.15 K
endpoint_label: solubility (mole fraction)
Simply state the number, no unit and no words.

Input: Query: solubility (mole fraction); subject: Clc1ccccc1C(c1ccccc1)(c1ccccc1)n1ccnc1
Output: 0.0181

====

# protocol_conditions: in acetonitrile, 323.15 K
endpoint_label: solubility (mole fraction)
Simply state the number, no unit and no words.

Input: Query: solubility (mole fraction); subject: Clc1ccccc1C(c1ccccc1)(c1ccccc1)n1ccnc1
Output: 0.00886

====

# protocol_conditions: in acetonitrile, 298.15 K
endpoint_label: solubility (mole fraction)
Simply state the number, no unit and no words.

Input: Query: solubility (mole fraction); subject: Clc1ccccc1C(c1ccccc1)(c1ccccc1)n1ccnc1
Output: 0.00378

====

# protocol_conditions: in 1,4-dioxane, 308.15 K
endpoint_label: solubility (mole fraction)
Simply state the number, no unit and no words.

Input: Query: solubility (mole fraction); subject: Clc1ccccc1C(c1ccccc1)(c1ccccc1)n1ccnc1
Output: 0.0643

====

# protocol_conditions: in n-propanol, 298.15 K
endpoint_label: solubility (mole fraction)
Simply state the number, no unit and no words.

Input: Query: solubility (mole fraction); subject: Clc1ccccc1C(c1ccccc1)(c1ccccc1)n1ccnc1
Output: 0.0257

====

# protocol_conditions: in acetonitrile, 288.15 K
endpoint_label: solubility (mole fraction)

Input: Query: solubility (mole fraction); subject: Clc1ccccc1C(c1ccccc1)(c1ccccc1)n1ccnc1
Output: 0.00264

====

# protocol_conditions: in isopropanol, 303.15 K
endpoint_label: solubility (mole fraction)
Simply state the number, no unit and no words.

Input: Query: solubility (mole fraction); subject: Clc1ccccc1C(c1ccccc1)(c1ccccc1)n1ccnc1
Output: 0.0195

====

# protocol_conditions: in isopropanol, 298.15 K
endpoint_label: solubility (mole fraction)
Simply state the number, no unit and no words.

Input: Query: solubility (mole fraction); subject: Clc1ccccc1C(c1ccccc1)(c1ccccc1)n1ccnc1
Output: 0.0164

====

# protocol_conditions: in water, 313.15 K
endpoint_label: solubility (mole fraction)

Input: Query: solubility (mole fraction); subject: Clc1ccccc1C(c1ccccc1)(c1ccccc1)n1ccnc1
Output: 4.78e-08

====

# protocol_conditions: in n-propanol, 283.15 K
endpoint_label: solubility (mole fraction)
Simply state the number, no unit and no words.

Input: Query: solubility (mole fraction); subject: Clc1ccccc1C(c1ccccc1)(c1ccccc1)n1ccnc1
Output: 0.0151

====

# protocol_conditions: in n-propanol, 318.15 K
endpoint_label: solubility (mole fraction)
Simply state the number, no unit and no words.

Input: Query: solubility (mole fraction); subject: Clc1ccccc1C(c1ccccc1)(c1ccccc1)n1ccnc1
Output: 0.0477

====

# protocol_conditions: in water, 323.15 K
endpoint_label: solubility (mole fraction)
Simply state the number, no unit and no words.

Input: Query: solubility (mole fraction); subject: Clc1ccccc1C(c1ccccc1)(c1ccccc1)n1ccnc1
Output: 7.07e-08

====

# protocol_conditions: in acetonitrile, 293.15 K
endpoint_label: solubility (mole fraction)

Input: Query: solubility (mole fraction); subject: Clc1ccccc1C(c1ccccc1)(c1ccccc1)n1ccnc1
Output: 0.00316

====

# protocol_conditions: in water, 308.15 K
endpoint_label: solubility (mole fraction)
Simply state the number, no unit and no words.

Input: Query: solubility (mole fraction); subject: Clc1ccccc1C(c1ccccc1)(c1ccccc1)n1ccnc1
Output: 3.85e-08

====

# protocol_conditions: in 1,4-dioxane, 323.15 K
endpoint_label: solubility (mole fraction)
Simply state the number, no unit and no words.

Input: Query: solubility (mole fraction); subject: Clc1ccccc1C(c1ccccc1)(c1ccccc1)n1ccnc1
Output: 0.091

====

# protocol_conditions: in water, 298.15 K
endpoint_label: solubility (mole fraction)
Simply state the number, no unit and no words.

Input: Query: solubility (mole fraction); subject: Clc1ccccc1C(c1ccccc1)(c1ccccc1)n1ccnc1
Output: 2.47e-08

====

# protocol_conditions: in isopropanol, 293.15 K
endpoint_label: solubility (mole fraction)
Simply state the number, no unit and no words.

Input: Query: solubility (mole fraction); subject: Clc1ccccc1C(c1ccccc1)(c1ccccc1)n1ccnc1
Output: 0.0137

====

# protocol_conditions: in n-propanol, 278.15 K
endpoint_label: solubility (mole fraction)

Input: Query: solubility (mole fraction); subject: Clc1ccccc1C(c1ccccc1)(c1ccccc1)n1ccnc1
Output: 0.0125

====

# protocol_conditions: in 1,4-dioxane, 313.15 K
endpoint_label: solubility (mole fraction)
Simply state the number, no unit and no words.

Input: Query: solubility (mole fraction); subject: Clc1ccccc1C(c1ccccc1)(c1ccccc1)n1ccnc1
Output: 0.0731

====

# protocol_conditions: in 1,4-dioxane, 303.15 K
endpoint_label: solubility (mole fraction)
Simply state the number, no unit and no words.

Input: Query: solubility (mole fraction); subject: Clc1ccccc1C(c1ccccc1)(c1ccccc1)n1ccnc1
Output: 0.0568

Hey, just so you know, these numbers are from BigSolDB 2.1.
